Cited source for all entries: the supplement of paper PMC4862054

system: DU-4475; test: normalised response (% of control), CellTox Green; higher = less cell death (100 = DMSO, 0 = benzethonium chloride kill control); settings: incubation time: 72 h
In this section we review reported normalised response values for a set of molecules.
Numbers only here, please. The scale is %.

Here are 7 molecules together with their reported answers.
>>> measured_result("CCNC(=O)c1noc(-c2cc(C(C)C)c(O)cc2O)c1-c1ccc(CN2CCOCC2)cc1 [NVP-AUY922] (100 nM)")
65.5
>>> measured_result("CN(Cc1cnc2nc(N)nc(N)c2n1)c1ccc(C(=O)N[C@@H](CCC(=O)O)C(=O)O)cc1 [Methotrexate] (50000 nM)")
99
>>> measured_result("O=C(O)CNC(=O)c1c(O)c2ccccc2n(Cc2ccccc2)c1=O [IOX-2] (500 nM)")
111
>>> measured_result("CC1(COc2ccc3c(c2)ncn3-c2ccc3cccc(N4CCC(N)CC4)c3n2)COC1 [Crenolanib] (100 nM)")
103
>>> measured_result("C=CCn1c(=O)c2cnc(Nc3ccc(N4CCN(C)CC4)cc3)nc2n1-c1cccc(C(C)(C)O)n1 [MK1775] (100 nM)")
94.9
>>> measured_result("CC[C@H](CO)Nc1nc(NCc2ccccc2)c2ncn(C(C)C)c2n1 [Seliciclib] (1000 nM)")
99.2
>>> measured_result("CCN(CC)CCCC(C)Nc1ccnc2cc(Cl)ccc12 (stereo not drawn) [Chloroquine] (10000 nM)")
96.2

Now consider a different molecule.
Asked: Please state recorded normalised response (tested on DU-4475) of CCN(CC)CCCC(C)Nc1ccnc2cc(Cl)ccc12 (stereo not drawn) [Chloroquine] (100000 nM)
Given back: 48.9

----------
In this section we review reported normalised response values for a set of compounds.
system: MCF-10A; assay: normalised response (% of control), CellTox Green; higher = less cell death (100 = DMSO, 0 = benzethonium chloride kill control); settings: incubation time: 72 h
// unit must come after the numeric part

>>> measured_result("COc1cc(Nc2c(C#N)cnc3cc(OCCCN4CCN(C)CC4)c(OC)cc23)c(Cl)cc1Cl [Bosutinib] (100 nM)")
"103%"

Asked: What measured normalised response goes with CN(Cc1cnc2nc(N)nc(N)c2n1)c1ccc(C(=O)N[C@@H](CCC(=O)O)C(=O)O)cc1 [Methotrexate] (500 nM) ?
Given back: 96.5%

Asked: Same thing, different compound: Cc1nc(C(=O)NCC(=O)O)c(O)c2ccc(Oc3ccccc3)cc12 [FG-4592] (10000 nM)
Given back: 111%

Asked: Same thing, different compound: Cc1nc(C(=O)NCC(=O)O)c(O)c2ccc(Oc3ccccc3)cc12 [FG-4592] (1000 nM)
Given back: 94.2%

Asked: Same thing, different compound: CCNC(=O)CCC/C=C\C[C@@H]1[C@@H](/C=C/[C@@H](O)CCc2ccccc2)[C@H](O)C[C@@H]1O [Bimatoprost] (55 nM)
Given back: 89.2%

Asked: Same thing, different compound: CO[C@@H]1[C@H](N(C)C(=O)c2ccccc2)C[C@H]2O[C@]1(C)n1c3ccccc3c3c4c(c5c6ccccc6n2c5c31)C(=O)NC4 [Midostaurin] (1000 nM)
Given back: 93.8%

Asked: Same thing, different compound: Nc1ccn([C@@H]2O[C@H](CO)[C@@H](O)C2(F)F)c(=O)n1 [Gemcitabine] (100 nM)
Given back: 94.5%

Asked: Same thing, different compound: Cc1cn(-c2cc(NC(=O)c3ccc(C)c(Nc4nccc(-c5cccnc5)n4)c3)cc(C(F)(F)F)c2)cn1 [Nilotinib] (10000 nM)
Given back: 98.3%
